Assay: LTEA_HepaRG_LDH_cytotoxicity: Cytotoxicity Assessment in the Life Technologies and Expression Analysis (LTEA) Assay (AID 2283563)
Calls of active or inactive are those of the source. Rule for the calls: active = hit-call score of the fitted dose curve at least 0.9, where 1 is the maximum; inconclusive = response in the unintended direction; inactive = score below 0.9.
Outcome (select one): Y = active, N = inactive

{"MOLECULE": "Nc1ccc(N=Nc2ccccc2)cc1", "ASSIGNED CATEGORY": "Y"}

Could you please tell me the result logged for N#CC(Br)(Br)C(N)=O in this assay?
N

Subsequent entry: CN(C)c1ccc(C(=O)c2ccc(N(C)C)cc2)cc1
N

Subsequent entry: Cc1ccc([N+](=O)[O-])cc1
N

Subsequent entry: Cc1cccc(N)c1N
N

Subsequent entry: [As]#[In]
N

Subsequent entry: COC(=O)Nc1nc2ccccc2[nH]1
N

Subsequent entry: N#CC(Br)Br
N

###

Read-out: Pselectin, SELP (gene 6403)
Test: BSK_4H_Pselectin: BioMAP Diversity Plus: 4H Assay for Pselectin Biomarker Activity (AID 2283026)
Settings: primary human endothelial cells (HUVEC); actives raise or lower the signal
Active and inactive are the calls of the source. The calls were made as follows: active = hit-call score of the fitted dose curve at least 0.9, where 1 is the maximum; inactive = score below 0.9.
Outcome (select one): YES (active), NO (inactive)

{"COMPOUND": "C[N+](C)(C)CC1CO1 (stereo not drawn)", "ASSIGNED CATEGORY": "NO"}
{"COMPOUND": "CC(C)(C)OOC(=O)c1ccccc1", "ASSIGNED CATEGORY": "NO"}
{"COMPOUND": "CS(=O)(=O)NC(=O)c1cc(Oc2ccc(C(F)(F)F)cc2Cl)ccc1[N+](=O)[O-]", "ASSIGNED CATEGORY": "NO"}
{"COMPOUND": "Oc1ccccc1Cl", "ASSIGNED CATEGORY": "NO"}
{"COMPOUND": "OCCOCCO", "ASSIGNED CATEGORY": "NO"}

Could you please tell me the result logged for CCCCCOC(=O)c1ccccc1C(=O)OCCCCC in this assay?
YES

Subsequent entry: Cn1cc(-c2ccccc2)c(=O)c(-c2cccc(C(F)(F)F)c2)c1
NO

Subsequent entry: CCOc1cccc(C2(N3CCN(c4ccccc4)CC3)CCC(C)CC2)c1 (stereo not drawn)
NO

Subsequent entry: Cc1ccc(N)cc1
NO

Subsequent entry: Oc1ccc2ccc3cccc4ccc1c2c34
YES

Subsequent entry: CCCCC(CC)COC(=O)c1ccc(C(=O)OCC(CC)CCCC)c(C(=O)OCC(CC)CCCC)c1 (stereo not drawn)
NO

Subsequent entry: CC(C)N(Cc1ccccc1)C(=O)C(C)(C)C
NO

Subsequent entry: Nc1ccc([N+](=O)[O-])cc1
NO

Subsequent entry: c1ccc(C2CO2)cc1 (stereo not drawn)
NO

Subsequent entry: N#CC(Br)Br
NO

Subsequent entry: CCCCCCCCOC(=O)c1ccc(C(=O)OCCCCCCCC)c(C(=O)OCCCCCCCC)c1
NO

Subsequent entry: ClC1=C(Cl)[C@]2(Cl)[C@H]3[C@H]([C@@H]4C=C[C@H]3C4)[C@@]1(Cl)C2(Cl)Cl
YES

###

Read-out: Interleukin 6 Receptor (IL6R), IL6R (gene 3570)
Test: LTEA_HepaRG_IL6R: Life Technologies and Expression Analysis (LTEA) Assay for Interleukin 6 Receptor (IL6R) using HepaRG (AID 2283510)
Settings: mRNA level, 48 h; actives raise or lower the signal
The source made the active and inactive calls. How the source made its calls: active means hit-call score of the fitted dose curve at least 0.9, where 1 is the maximum; inactive means score below 0.9.
Outcome (select one): active, inactive

A selection of reference data follows.
{"MOLECULE": "CC(C)(C)C(O)(CCc1ccc(Cl)cc1)Cn1cncn1 (stereo not drawn)", "ASSIGNED CATEGORY": "inactive"}
{"MOLECULE": "Oc1ccccc1Cl", "ASSIGNED CATEGORY": "inactive"}
{"MOLECULE": "N#CC(Br)Br", "ASSIGNED CATEGORY": "inactive"}

Could you please tell me the result logged for COC(=O)Nc1nc2ccccc2[nH]1 in this assay?
inactive

Subsequent entry: Nc1ccc(Oc2ccc(N)cc2)cc1
inactive

Subsequent entry: CN(C)c1ccccc1
inactive

Subsequent entry: OCCCl
inactive

Subsequent entry: Nc1ccc(N=Nc2ccccc2)cc1
active

Subsequent entry: Cc1cc(N=Nc2ccccc2C)ccc1N
active

Subsequent entry: CNC(=O)Oc1cccc2c1OC(C)(C)C2
inactive

Subsequent entry: N#CC(Br)(Br)C(N)=O
inactive

Subsequent entry: Brc1ccc(Oc2ccccc2)cc1
inactive

Subsequent entry: O=C(N[C@H](c1ccccc1)[C@@H]1CN2CCC1CC2)c1c(Cl)ccc(C(F)(F)F)c1Cl
inactive

Subsequent entry: CN(C)[C@@H]1C(=O)C(C(N)=O)=C(O)[C@@]2(O)C(=O)C3=C(O)c4c(O)cccc4[C@@](C)(O)[C@H]3C[C@@H]12
inactive

Subsequent entry: O=[N+]([O-])C(Br)(CO)CO
inactive

Subsequent entry: Cc1cccc(N)c1N
inactive

###

Molecular target: Retinoic acid receptor alpha (Homo sapiens) (UniProt P10276)
Sequence (P10276 whole entry, looked up): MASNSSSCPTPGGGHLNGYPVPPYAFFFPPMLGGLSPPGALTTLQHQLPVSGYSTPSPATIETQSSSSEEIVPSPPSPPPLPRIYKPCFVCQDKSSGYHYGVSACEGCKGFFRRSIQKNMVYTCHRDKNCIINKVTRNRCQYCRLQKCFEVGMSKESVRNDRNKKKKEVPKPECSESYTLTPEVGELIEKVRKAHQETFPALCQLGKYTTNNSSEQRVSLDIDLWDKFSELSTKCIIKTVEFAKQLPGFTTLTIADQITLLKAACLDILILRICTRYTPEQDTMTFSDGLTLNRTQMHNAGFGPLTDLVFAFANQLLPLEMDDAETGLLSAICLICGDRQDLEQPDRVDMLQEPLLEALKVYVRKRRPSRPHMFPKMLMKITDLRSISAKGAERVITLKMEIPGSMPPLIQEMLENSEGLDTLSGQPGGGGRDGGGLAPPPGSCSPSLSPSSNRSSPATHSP
Assay: ATG_DR5_RAR_CIS: Attagene CIS-FACTORIAL HepG2 Assay for human Retinoic Acid Receptor Alpha (RARE), DR5 submotif (AID 2282934)
Conditions: HepG2 Attagene cis-factorial RARE DR5 reporter, mRNA; actives raise or lower the signal
Active and inactive are the calls of the source. The calls were made as follows: active = hit-call score of the fitted dose curve at least 0.9, where 1 is the maximum; inactive = score below 0.9.
Outcome (select one): 1 (yes) for active, 0 (no) for inactive

A selection of reference data follows.
{"COMPOUND": "CO[C@@H]1[C@H](OC(=O)NC(=O)CCl)CC[C@]2(CO2)[C@H]1[C@@]1(C)O[C@@H]1CC=C(C)C", "EXPERIMENTAL SYSTEM": "Retinoic acid receptor alpha (Homo sapiens) (UniProt P10276)", "ASSIGNED CATEGORY": "0 (no)"}
{"COMPOUND": "Cc1cccc(N)c1N", "EXPERIMENTAL SYSTEM": "Retinoic acid receptor alpha (Homo sapiens) (UniProt P10276)", "ASSIGNED CATEGORY": "1 (yes)"}
{"COMPOUND": "CCCCCCCCOC(=O)c1ccc(C(=O)OCCCCCCCC)c(C(=O)OCCCCCCCC)c1", "EXPERIMENTAL SYSTEM": "Retinoic acid receptor alpha (Homo sapiens) (UniProt P10276)", "ASSIGNED CATEGORY": "0 (no)"}
{"COMPOUND": "O=C(O)C1C2CCC(O2)C1C(=O)O (stereo not given)", "EXPERIMENTAL SYSTEM": "Retinoic acid receptor alpha (Homo sapiens) (UniProt P10276)", "ASSIGNED CATEGORY": "1 (yes)"}
{"COMPOUND": "CC(C)COC(=O)c1ccccc1C(=O)OCC(C)C", "EXPERIMENTAL SYSTEM": "Retinoic acid receptor alpha (Homo sapiens) (UniProt P10276)", "ASSIGNED CATEGORY": "0 (no)"}

Could you please tell me the result logged for OCCCBr in this assay?
0 (no)

Subsequent entry: Nc1ccc(Oc2ccc(N)cc2)cc1
0 (no)

Subsequent entry: Nc1ccc(Cc2ccc(N)cc2)cc1
0 (no)

Subsequent entry: Cc1ccc(N)cc1
0 (no)

Subsequent entry: CC(O)CCO (stereo not given)
0 (no)

Subsequent entry: [O-][Cl+]O
0 (no)

Subsequent entry: CNC(=O)Oc1cccc2c1OC(C)(C)C2
0 (no)

Subsequent entry: [As]#[In]
0 (no)

Subsequent entry: Nc1ccc(Cl)cc1N
0 (no)

Subsequent entry: c1ccc2c(c1)-c1cccc3cccc-2c13
0 (no)

###

Molecular target: Bile acid receptor (Homo sapiens)
Experiment: ATG_FXR_TRANS: Attagene TRANS-FACTORIAL HepG2 Assay for Farnesoid X Receptor (FXR) (AID 2282979);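 note: hits raise reporter mRNA above DMSO so AC50 marks FXR activation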
Settings: HepG2 Attagene TRANS FXR-GAL4 reporter transcription
Inconclusive results are not listed. The source made the active and inactive calls. The calls were made as follows: active = hit-call score of the fitted dose curve at least 0.9, where 1 is the maximum; inconclusive = response in the unintended direction; inactive = score below 0.9.
Outcome (select one): active, inactive

A selection of reference data follows.
{"MOLECULE": "CC(C)(O)c1cnn2c(-c3ccc(F)c(-c4c(F)cccc4C#N)c3)cnc2n1", "ASSIGNED CATEGORY": "active"}
{"MOLECULE": "Cc1cccc(N)c1N", "ASSIGNED CATEGORY": "inactive"}
{"MOLECULE": "OCCCl", "ASSIGNED CATEGORY": "inactive"}
{"MOLECULE": "CCC[CH2][Sn]([Cl])([CH2]CCC)[CH2]CCC", "ASSIGNED CATEGORY": "inactive"}
{"MOLECULE": "CCC(C)c1ccc(O)cc1 (configuration not stated)", "ASSIGNED CATEGORY": "inactive"}
{"MOLECULE": "CC(C)(OOC(C)(C)c1ccccc1)c1ccccc1", "ASSIGNED CATEGORY": "inactive"}

Attention now turns to another entry.
Could you please tell me the result logged for O=P(OCCCl)(OCCCl)OCCCl in this assay?
inactive

###

Read-out: Lipase C (LIPC), LIPC (gene 3990)
Experiment: LTEA_HepaRG_LIPC: Life Technologies and Expression Analysis (LTEA) Assay for Lipase C (LIPC) using HepaRG (AID 2283514)
Conditions: mRNA level, 48 h; actives raise or lower the signal
Active and inactive are the calls of the source. Rule for the calls: active = hit-call score of the fitted dose curve at least 0.9, where 1 is the maximum; inactive = score below 0.9.
Outcome (select one): active, inactive

{"MOLECULE": "CN(C)[C@@H]1C(=O)C(C(N)=O)=C(O)[C@@]2(O)C(=O)C3=C(O)c4c(O)cccc4[C@@](C)(O)[C@H]3C[C@@H]12", "ASSIGNED CATEGORY": "inactive"}
{"MOLECULE": "Cc1cc(N=Nc2ccccc2C)ccc1N", "ASSIGNED CATEGORY": "active"}

Could you please tell me the result logged for Cc1ccc(N)c(N)c1 in this assay?
inactive

Subsequent entry: COc1cc(C=O)cc2c1[C@H](COC(N)=O)[C@]1(OC(C)=O)ON2C[C@H]2[C@@H]1N2C(C)=O
inactive

Subsequent entry: c1ccc2c(c1)-c1cccc3cccc-2c13
inactive
